# System: MCF-7
# assayComment: SRB cytotoxicity assay, MCF-7 breast carcinoma cells
# conditionSummary: Homo sapiens, MCF7, read-out: Cytotoxicity IC50, MCF-7
compounds and their reported IC50

{"columns": ["compound", "outputUnit", "IC50"],
 "data": [
  ["COc1cc2c(cc1O)-c1c(cc(O)cc1OC)CC2", "µM", 160],
  ["COc1cc(CCc2cc(OC)c(OC)c(Oc3cc(OC)c(OC)c(OC)c3)c2)ccc1O", "µM", 72.7],
  ["COc1cc2c(cc1O)-c1c(cc(O)c(OC)c1OC)CC2", "µM", 42],
  ["COc1cc2c(ccc3cc(O)cc(OC)c32)cc1O [Compound 2, 2,7-Dihydroxy-4,6-dimethoxyphenanthrene]", "µM", 118],
  ["COc1cc2ccc3cc(O)c(OC)c(OC)c3c2cc1O", "µM", 226],
  ["COc1cc2c(cc1O)CCc1cc(O)cc(OC)c1-2", "µM", 47]
]}
